Listed below: T/C values for each entry.
System: L1210 leukemia ip in BDF1 mice, survival T/C
Assay: NCI In Vivo Anticancer Drug Screen. Data for tumor model L1210 Leukemia (intraperitoneal) in B6D2F1 (BDF1) mice
Conditions: endpoint: mean survival time; dose: 100.0 mg/kg/injection; schedule: Q01DX001 (ip); vehicle: saline; higher = longer survival
Inconclusive results and toxic doses are left out.

c1ccc(CSC(Cc2ccccc2)(SCc2ccccc2)c2ccccc2)cc1	104 % of control
CC(=O)Oc1ccc(OC(C)=O)c2c1C(=O)C=CC2=O	107 % of control
CCCCSC1CCCC1	89 % of control

Kindly consider the entry below.
Sample CC(C)NCC(=O)c1ccc(O)c(O)c1 — what was its T/C?
107 % of control

---

Test system: L1210 leukemia ip in BDF1 mice, survival T/C
Assay: NCI In Vivo Anticancer Drug Screen. Data for tumor model L1210 Leukemia (intraperitoneal) in B6D2F1 (BDF1) mice
Conditions: endpoint: mean survival time; dose: 200.0 mg/kg/injection; schedule: Q01DX009 (ip); vehicle: Klucel (hydroxypropylcellulose) (HPC); higher = longer survival
Inconclusive results and toxic doses are left out.
quantity: T/C

Known results for molecules:
CCC(=O)Nc1ccc(F)cc1	113 % of control
C[N+]1=CN(c2ccc(Cl)cc2)Cc2cc(Cl)ccc21	106 % of control
C/C=C/C(=O)Nc1cccc(C)c1C	100 % of control
CC(C)=Cc1cc(C)ccc1OC(=O)c1ccc([N+](=O)[O-])cc1	101 % of control
CC(O)c1ccc(Cl)c(Cl)c1 (centres undefined)	90 % of control
CCCCCCCCCCCCCCCCOc1ccc(S(=O)(=O)Nc2cc(C(=O)OC)cc(C(=O)OC)c2)cc1[N+](=O)[O-]	97 % of control

Sample COc1ccc(C)cc1NC(=O)Nc1ccc(SC)cc1 — what was its T/C?
95 % of control

// query: COc1ccc(NC(=O)N2CCN(c3ccccc3)CC2)c(OC)c1
96 % of control

---

Listed below: T/C values for each entry.
Test system: L1210 leukemia ip in BDF1 mice, survival T/C
Experiment: NCI In Vivo Anticancer Drug Screen. Data for tumor model L1210 Leukemia (intraperitoneal) in B6D2F1 (BDF1) mice
Conditions: endpoint: mean survival time; dose: 100.0 mg/kg/injection; schedule: Q01DX001 (ip); vehicle: carboxymethylcellulose (CMC); higher = longer survival
Inconclusive results and toxic doses are left out.

COc1ccc(-c2c3c(cc4cc(OC)c(OC)cc24)C(=O)OC3=O)cc1OC	93 % of control

Kindly consider the entry below.
Sample O=C1/C(=C/c2cccc3ccccc23)CCc2ccccc21 — what was its T/C?
97 % of control

---

Tested on: L1210 leukemia ip in BDF1 mice, survival T/C
Assay: NCI In Vivo Anticancer Drug Screen. Data for tumor model L1210 Leukemia (intraperitoneal) in B6D2F1 (BDF1) mice
Settings: endpoint: mean survival time; dose: 50.0 mg/kg/injection; schedule: Q01DX001 (ip); vehicle: carboxymethylcellulose (CMC); higher = longer survival
Inconclusive results and toxic doses are left out.
Listed below: T/C values for each entry.

Known results for molecules:
N#CC1(Nc2ccc(-c3ccc(Cl)cc3)cc2)CCCC1	91 % of control
c1ccc(-c2cnc[nH]2)cc1	100 % of control
O=S(c1cc(Cl)cc(Cl)c1O)c1cc(Cl)cc(Cl)c1O	95 % of control
CC12CC3CC(C)(C1)CC(N)(C3)C2	98 % of control
c1cn[nH]c1	96 % of control
CCOC(=O)c1ccc(OC(=O)Nc2ccc(F)cc2)cc1	106 % of control
Cc1ccc2c([nH]1)c(C)cc1nc3ccccc3c12	103 % of control
CC1(C)C(OS(C)(=O)=O)C(C)(C)C1OS(C)(=O)=O (stereo not given)	111 % of control

Sample O=c1[nH]c(-c2ccccc2)nc2c1OCN(Cc1ccccc1)C2 — what was its T/C?
98 % of control

// query: CCOC(=O)C(C)(CCOCc1ccccc1)NC(C)=O (stereo not given)
94 % of control

---

Tested on: L1210 leukemia ip in BDF1 mice, survival T/C
Experiment: NCI In Vivo Anticancer Drug Screen. Data for tumor model L1210 Leukemia (intraperitoneal) in B6D2F1 (BDF1) mice
Conditions: endpoint: mean survival time; dose: 200.0 mg/kg/injection; schedule: Q04DX003 (ip); vehicle: saline with Tween-80; higher = longer survival
Toxic doses and inconclusive results are not listed.
quantity: T/C

Known results for compounds:
CC(=O)Nc1ccc(NC(C)=O)c2c1C(=O)c1ccccc1C2=O	112 % of control
CCOC(=O)C(C)C(=O)Cc1cc(OC)c(C)cc1Br (centres undefined)	95 % of control
Cc1cccc(N=C(N)N=C(N)N)c1	88 % of control

Kindly consider the entry below.
Sample O=C1CCCCCC1c1ccccc1 (centres undefined) — what was its T/C?
96 % of control

---

Listed below: T/C values for each entry.
System: L1210 leukemia ip in BDF1 mice, survival T/C
Assay: NCI In Vivo Anticancer Drug Screen. Data for tumor model L1210 Leukemia (intraperitoneal) in B6D2F1 (BDF1) mice
Details: endpoint: mean survival time; dose: 200.0 mg/kg/injection; schedule: Q01DX009 (ip); vehicle: saline; higher = longer survival
Inconclusive results and toxic doses are left out.

COc1ccc2nc(C)c(COC(C)=O)c(Cl)c2c1	92 % of control

Give recorded T/C with L1210 leukemia ip in BDF1 mice, survival T/C for the following compound: OCC1=CC(O)C2C=COC(C3OC(CO)C(O)C(O)C3O)C12 (stereo unspecified)
95 % of control

// query: Nc1ccc2c3c(cccc13)C(=O)OC2=O
95 % of control

// query: COc1ccccc1CN1CCCN(Cc2ccccc2OC)C1c1ccc(N(CCCl)CCCl)cc1C
95 % of control

// query: CCO/N=C(/N)N=C(N)N
107 % of control

// query: O=S(=O)(O)C1(O)CCCCC1
103 % of control

// query: CCOC(=O)c1cc(N)c[nH]1
96 % of control

// query: Cc1ccc(O)cc1Cl
101 % of control

// query: CCC(=O)OCCOc1ccc(C(C)(C)C)cc1
103 % of control

---

Listed below: T/C values for each entry.
Tested on: L1210 leukemia ip in BDF1 mice, survival T/C
Experiment: NCI In Vivo Anticancer Drug Screen. Data for tumor model L1210 Leukemia (intraperitoneal) in B6D2F1 (BDF1) mice
Settings: endpoint: mean survival time; dose: 100.0 mg/kg/injection; schedule: Q01DX009 (ip); vehicle: saline with Tween-80; higher = longer survival
Toxic doses and inconclusive results are not listed.

CCCCCc1ccc(C(=O)O)cc1	97 % of control
NC(=O)c1nccnc1Cl	91 % of control
CCOC(=O)c1c(Cl)c(Cl)c(Cl)c(Cl)c1C(=O)OCC	101 % of control
CNC(=S)N/N=C1/C(=N\NC(=S)NC)C(=O)OC1C(O)CO (stereo not given)	98 % of control

Sample O=[N+]([O-])c1cc[n+]([O-])c(Br)c1 — what was its T/C?
98 % of control

---

Tested on: L1210 leukemia ip in BDF1 mice, survival T/C
Assay: NCI In Vivo Anticancer Drug Screen. Data for tumor model L1210 Leukemia (intraperitoneal) in B6D2F1 (BDF1) mice
Conditions: endpoint: mean survival time; dose: 200.0 mg/kg/injection; schedule: Q04DX003 (ip); vehicle: saline with Tween-80; higher = longer survival
Toxic doses and inconclusive results are not listed.
Listed below: T/C values for each entry.

Known results for molecules:
Cc1cc(C(=O)c2ccccn2)c2cccc(C(F)(F)F)c2n1	88 % of control
c1ccc(-c2ccc(-c3ccccc3)c(-c3ccc4c(c3)CCC4)c2-c2ccccc2)cc1	96 % of control
CN(C)C(=S)Oc1ccc(OC(=S)N(C)C)cc1	95 % of control

Sample CCOc1ccc(N2C(=O)CC(Sc3ccccc3N)C2=O)cc1 (stereo not given) — what was its T/C?
90 % of control

// query: C=CCNC(=O)Nc1cccc(O)c1
96 % of control

---

Listed below: T/C values for each entry.
Tested on: L1210 leukemia ip in BDF1 mice, survival T/C
Assay: NCI In Vivo Anticancer Drug Screen. Data for tumor model L1210 Leukemia (intraperitoneal) in B6D2F1 (BDF1) mice
Details: endpoint: mean survival time; dose: 200.0 mg/kg/injection; schedule: Q04DX003 (ip); vehicle: saline; higher = longer survival
Toxic doses and inconclusive results are not listed.

Known results for compounds:
O=C1/C(=C\c2ccccc2)OC(c2ccccc2)O/C1=C/c1ccccc1 (stereo unspecified)	96 % of control
CCOC(=O)N/N=C(/C)OCC	102 % of control
CC(C)=C(Br)c1c(C)cc(C)c(Nc2ccc([N+](=O)[O-])cc2)c1C	91 % of control
O=C(c1ccccc1)C1CCCCC1	96 % of control
O=C(c1ccccc1)c1cc(O)c(O)c(O)c1	94 % of control
C/C(CCC(=O)O)=N/O	100 % of control
C(=C\c1nc2ccccc2s1)/c1ccccc1	93 % of control
N#CCCc1ccnc2ccccc12	102 % of control
O=S(=O)(c1ccccc1)C1CC(Cl)C1 (stereo unspecified)	98 % of control
Cc1ccc(C)c(NC(=O)OCCOc2ccccc2)c1	104 % of control

Sample CCN(CC)CCNC(C)=O — what was its T/C?
101 % of control
